Origin of values: PubChem BioAssay AID1159580

# test summary: chemical genetic growth profiling, strain panel (AID 1159580);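 note: tested at 20 µM; growth read once vehicle control cultures reached saturation at 30 °C; 1 = growth at the plate median or of vehicle wells; lower values mean less growth of the strain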
# reported conditions: S. cerevisiae deletion strains, growth OD, locus YNL175C, strain NOP13, active compounds read low
The campaign covered roughly 5,500 compounds. About 2,000 (36%) were called active. Another 18% or so got no clear call; they are omitted. This is one part of the list.
What normalized growth was measured for each of the following?
Give bare numbers.

Please supply normalized growth for each of the following items, keeping them in order.
1. CC(C)(C)c1cc(C=C(C#N)C#N)cc(C(C)(C)C)c1O
2. N#C/C(=C\c1ccc(O)c(O)c1)C(=O)c1ccc(O)c(O)c1
3. N#C/C(=C\c1ccc(O)c(O)c1)C(=O)NCCCNC(=O)/C(C#N)=C/c1ccc(O)c(O)c1

Found:
1. 0.943
2. 0.961
3. 1.01

Batch lookup, normalized growth per entry.
1. N#C/C(=C/c1ccc(O)c(O)c1)C(N)=S
2. CNCC(O)c1ccc(O)cc1 (stereo unspecified)

Found:
1: 0.977; 2: 1.02

For reference, reported normalized growth for N#C/C(=C\c1ccc(O)c(O)c1)C(=O)NCCc1ccccc1 stands at 1
